# method.summary: modulators of glucocorticoid suppression of NF-kB, cell-based, luciferase, IL-1B stimulus, dexamethasone (AID 624486);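 further: 100% = mean signal of vehicle control wells on the plate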
# test.parameters: NF-kB luciferase reporter, IL-1B + dexamethasone, luminescence; actives lie on both sides, concentration not given here
result.type: percent of negative control (+Dex) (%)
# unit: % | format: bare number

| smiles.string | percent of negative control (+Dex) (%) |
| --- | --- |
| FC(F)(F)c1ccc(-c2nn3ncccc3c2-c2ccnc(Nc3ccc4c(c3)OCCO4)n2)cc1 | 110 |
| O=C1NC(=NCCCc2ccccc2)SC1=Cc1ccc2ncccc2c1 | 83 |
| COc1cc2c(cc1Nc1nc(Nc3ccsc3C(N)=O)c3cc[nH]c3n1)N(C(=O)CN(C)C)CCC2 | 95.5 |
| O=C1Nc2ccc(-c3cccnc3)cc2/C1=C\c1cc(Br)c(O)c(Br)c1 | 102 |

Could you now consider this next compound?
q: Query: percent of negative control (+Dex); subject: Nc1c(C(=O)c2cccc(C#CCN3CCOCC3)c2)cnn1-c1ccc(F)cc1
a: 120
